Values were extracted from paper PMC7677148.

# measurementTarget: UniProt:O94956
# Sequence (O94956 whole entry): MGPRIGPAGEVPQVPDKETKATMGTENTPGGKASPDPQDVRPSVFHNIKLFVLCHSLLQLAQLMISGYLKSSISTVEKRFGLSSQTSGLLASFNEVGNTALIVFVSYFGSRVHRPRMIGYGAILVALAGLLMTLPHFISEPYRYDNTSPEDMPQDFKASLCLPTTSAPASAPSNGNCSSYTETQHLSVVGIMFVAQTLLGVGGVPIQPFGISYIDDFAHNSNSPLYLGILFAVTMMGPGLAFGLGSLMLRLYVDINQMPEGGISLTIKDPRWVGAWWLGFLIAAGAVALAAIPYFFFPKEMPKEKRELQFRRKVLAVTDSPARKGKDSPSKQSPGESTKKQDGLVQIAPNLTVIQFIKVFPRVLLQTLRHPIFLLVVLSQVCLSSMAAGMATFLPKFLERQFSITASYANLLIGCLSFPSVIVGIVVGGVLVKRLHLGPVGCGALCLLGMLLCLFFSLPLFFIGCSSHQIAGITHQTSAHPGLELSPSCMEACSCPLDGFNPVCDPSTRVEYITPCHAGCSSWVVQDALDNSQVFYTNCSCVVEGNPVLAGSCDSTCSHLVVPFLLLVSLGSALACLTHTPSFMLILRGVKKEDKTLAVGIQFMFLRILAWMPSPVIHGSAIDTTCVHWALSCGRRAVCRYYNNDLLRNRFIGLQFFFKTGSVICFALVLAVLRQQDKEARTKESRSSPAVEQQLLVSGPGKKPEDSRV
# test: OATP2B1 inhibition assay
endpointLabel: IC50 (µM)
Form entry: value (µM) — number only.

// fetch IC50 given entry COc1ccc(-c2cc(=O)c3c(OC)c(OC)c(OC)cc3o2)cc1OC 5.4

// fetch IC50 given entry C[C@@H]1O[C@@H](O[C@H]2[C@H](Oc3cc(O)c4c(c3)O[C@H](c3ccc(O)cc3)CC4=O)O[C@H](CO)[C@@H](O)[C@@H]2O)[C@H](O)[C@H](O)[C@H]1O [Naringin, naringin, reference compound] 6.9

// fetch IC50 given entry C[C@@H]1O[C@@H](OC[C@H]2O[C@@H](Oc3cc(O)c4c(c3)O[C@H](c3ccc(O)cc3)CC4=O)[C@H](O)[C@@H](O)[C@@H]2O)[C@H](O)[C@H](O)[C@H]1O 14.2

// fetch IC50 given entry COc1ccc(-c2cc(=O)c3c(OC)c(OC)c(OC)c(OC)c3o2)cc1OC 1.6

Consider now this further compound.
// fetch IC50 given entry COc1ccc(-c2cc(=O)c3c(OC)c(OC)c(OC)c(OC)c3o2)cc1 1.6
